For each of the sequences below, state its apparent KD of K4 kissing-loop reporter.
Tested on: K4 kissing-loop RNA reporter;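 note: bound reporter read as fluorescence of individual clusters on recovered sequencing chips by microscopy, with normalized cluster intensities fitted with a binding model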
EXPERIMENT: apparent KD of K4 kissing-loop reporter; higher = weaker reporter binding
COND: Eterna round: R107; input ligand: FMN 200 uM
Lab book: enter the figure in nM, no units written.

Look up apparent KD of K4 kissing-loop reporter with K4 kissing-loop RNA reporter for this sequence: AGAUUCGACACGGCCGCCACUCGUGGUGGAUUACCUAGUGUCGAAGUUGAGUGAUGUUCAACUACGAGGACCGGGUGUUGAGUCU [KL-XTryp-B7 #analogue] 253

Look up apparent KD of K4 kissing-loop reporter with K4 kissing-loop RNA reporter for this sequence: UAUUUAUUAACUGAUACCAGACUUAAUGAAUUGUAAAUUACUAGUGAUGUUAGUGAAUCUGUCCCUUGGCAGCAGUAUUUAUUAA [JR_Nu_ExcTheophyB_Sub028] 111

Look up apparent KD of K4 kissing-loop reporter with K4 kissing-loop RNA reporter for this sequence: GUUACGCAUGGAAGGAGCGCAUGCUCAACUAUAAGCUCAGUGAUGUUGAGCAUUUUUUUUUUGCAGGUAGGUCGCCAUGUGUAAC [Ex Arginine B K4 29] 320

Look up apparent KD of K4 kissing-loop reporter with K4 kissing-loop RNA reporter for this sequence: AAUUCAGUGAUGUUGGAAGGCAAGCGGGAUACCAGCGGAGAAUAACGCCCUUGGCAGCCCAUAUAUCCCAAAUAGAUAAUAGUUC [Same State - Theophylline A (Freestyle 4)] 345

Look up apparent KD of K4 kissing-loop reporter with K4 kissing-loop RNA reporter for this sequence: GCCUAGCAGGGAAGGAGCGGCAUAGGCAUAGAUAAUAUGCAGUUAGUGAUGUUAACACUAUGCCAGGUAGGUCGCCCUGCUAGGC [KL-SSArg B8] 201

Look up apparent KD of K4 kissing-loop reporter with K4 kissing-loop RNA reporter for this sequence: AUUCGAUCAGUGAUGUUGAUCAAAGUCGAAGGAGCGGACGAAAGUCCAGGUAGGUCGCGACUACAAGGUGUUAAGACACCUCGAA [Spvincent t9 mod #OpenEnded] 246
